All values here come from patent US20240018251A1.

# measurement target: T1, FITC labeled BCMA (acrobiosystem, Cat. No. BCA-HF254) (UniProt Q02223 1-54, FITC labeled (site not stated))
# T1 construct: Soluble labeled protein used to stain CAR-T cells; also called BCMA antigen protein; BCMA protein
# T1 sequence (looked up): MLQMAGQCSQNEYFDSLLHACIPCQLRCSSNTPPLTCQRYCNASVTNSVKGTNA
# assay explanation: flow cytometry, CAR-T cells stained with FITC labeled BCMA

binder: chimeric antigen receptor comprising humanized anti-BCMA single domain antibody BH60_V6, on CAR-T cells (other) QVQLVESGGGLVQPGGSLRLSCVVSGGIFTINDMAWFRQAPGKQRELVAHISRSGSTYYRDFVKGRFTISRDNSKNTSYLQMNNLRAEDTATYYCNSIDRPLSYGQGTLVTVSTTTPAPRPPTPAPTIASQPLSLRPEACRPAAGGAVHTRGLDFACDIYIWAPLAGTCGVLLLSLVITLYCKRGRKKLLYIFKQPFMRPVQTTQEEDGCSCRFPEEEEGGCELRVKFSRSADAPAYQQGQNQLYNELNLGRREEYDVLDKRRGRDPEMGGKPRRKNPQEGLYNELQKDKMAEAYSEIGMKGERRRGKGHDGLYQGLSTATKDTYDALHMQALPPR
binding result: binds
